The values you see were collected from the supplement of paper PMC10724198.

# maps each entry to its protein stability index
Test system: Saccharomyces cerevisiae;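 also: PSI is a weighted mean of sequencing reads over stability bins, variants kept only with over 10 reads, mCherry proximal and sfGFP distal, peptide attached via GGGS linker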
Assay: protein stability index of tFT-peptide fusion (C-terminal peptide) (PSI (0-1 scale)); higher = more stable (slower turnover)
Conditions: genetic background: wild type; temperature: 30 C
Measurement type: protein stability index

ESAVHRTRRIPY    0.789
LPRSSRFPSPSR    0.765
MGVGCFCCLFVG    0.541
WWRGSVWHREVA    0.701
PPYFFPSDPRPD    0.748
YHFSLFFPLSLP    0.482
LSGPLILHLTSL    0.693
SEKGPRRSRVWD    0.745
VGCACGYGGCGL    0.682
RGFRPLGSGILI    0.689
PFLAWTILPLTY    0.701
VDKLVRCISVSI    0.543
GPEVRPTLTHNE    0.623
YSCLGFELWGKG    0.632
RATLGVSGRCWV    0.68
LPPPTPRSVLLN    0.51
PPRPSPPPLPPS    0.683
DKRRSMSGGNMD    0.68
HVTHPGCTLQLR    0.707
